# ASSAYED_SYSTEM: α-7 nicotinic ACh receptor ion channel (Rattus norvegicus, UniProt Q05941)
# Construct: expressed in transfected cells
# Sequence (Q05941 23-502): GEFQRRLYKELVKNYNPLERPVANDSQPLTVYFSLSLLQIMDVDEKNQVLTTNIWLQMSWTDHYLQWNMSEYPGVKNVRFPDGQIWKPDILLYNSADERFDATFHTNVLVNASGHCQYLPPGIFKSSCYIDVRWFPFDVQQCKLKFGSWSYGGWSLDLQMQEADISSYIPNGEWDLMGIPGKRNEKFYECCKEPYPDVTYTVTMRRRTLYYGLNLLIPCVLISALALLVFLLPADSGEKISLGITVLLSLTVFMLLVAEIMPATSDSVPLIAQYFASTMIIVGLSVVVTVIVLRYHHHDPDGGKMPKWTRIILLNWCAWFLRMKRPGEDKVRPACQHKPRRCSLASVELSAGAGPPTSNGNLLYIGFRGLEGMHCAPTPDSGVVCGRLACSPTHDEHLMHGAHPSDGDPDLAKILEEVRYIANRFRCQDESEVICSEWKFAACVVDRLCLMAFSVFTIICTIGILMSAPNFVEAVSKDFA
# MEASUREMENT_PROTOCOL: Ca2+-sensitive fluorescence-based FLIPR assay of α7 nicotinic receptor channel function (agonist activity)
# Type: cell-based
# PROTOCOL_CONDITIONS: HEK 293 cells, Ca2+ flux; read-out: FLIPR α7-HI (EC50)
ATTRIBUTE_MEASURED: pEC50
Convention used: pEC50 is expressed as -log10 of the molar concentration.

Query: Bench note: what pEC50 did c1ccc2[nH]c(NC3=NCC4(CN5CCC4CC5)N3)nc2c1 (stereo not shown) show?
Response: 5.89

---

# ASSAYED_SYSTEM: α-7 nicotinic ACh receptor ion channel (Rattus norvegicus, UniProt Q05941)
# Construct: expressed in transfected cells
# MEASUREMENT_PROTOCOL: Ca2+-sensitive fluorescence-based FLIPR assay of α7 nicotinic receptor channel function (agonist activity)
# Format: cell-based
# PROTOCOL_CONDITIONS: FLIPR α7-HI (EC50, nM), HEK 293 cells, Ca2+ flux; Table 1, activity class
Would you kindly list EC50 for each of these compounds?

Query: Bench note: what EC50 did Cc1nc(C)nc(NC2=NCC3(CN4CCC3CC4)N2)n1 (centres unmarked) show?
Response: 1000 to 100000 nM

Query: Check CN1C(Nc2nc3ccc(Br)nc3s2)=NCC12CN1CCC2CC1 (centres unmarked) too.
Response: 1000 to 100000 nM

Query: Check c1ccn2nc(NC3=NCC4(CN5CCC4CC5)N3)nc2c1 (centres unmarked) too.
Response: 100 to 1000 nM

Query: Check Cc1ccc2nc(NC3=NCC4(CN5CCC4CC5)N3)sc2c1 (centres unmarked) too.
Response: 100 to 1000 nM

Query: Check CN1C(Nc2nc3ccc(Cl)nc3s2)=NCC12CN1CCC2CC1 (centres unmarked) too.
Response: 100 to 1000 nM

---

Would you kindly list EC50 for each of these compounds?
# ASSAYED_SYSTEM: α-7 nicotinic ACh receptor ion channel (Rattus norvegicus)
# Construct: expressed in transfected cells
# MEASUREMENT_PROTOCOL: Ca2+-sensitive fluorescence-based FLIPR assay of α7 nicotinic receptor channel function (agonist activity)
# Format: cell-based
# PROTOCOL_CONDITIONS: FLIPR α7-HI (EC50, nM), HEK 293 cells, Ca2+ flux; Table 1, activity class

Query: Bench note: what EC50 did COc1ccc2nc(NC3=NCC4(CN5CCC4CC5)N3C)sc2n1 (stereo not drawn) show?
Response: 100 to 1000 nM

Query: Check c1ccc2sc(NC3=NCC4(CN5CCC4CC5)N3)nc2c1 (single isomer, unassigned) [Example 11b] too.
Response: 1000 to 100000 nM

Query: Check CN1C(Nc2ncc(-c3ccccc3)s2)=NCC12CN1CCC2CC1 (stereo not drawn) too.
Response: 1000 to 100000 nM

Query: Check CN1C(Nc2ncnc3ccccc23)=NCC12CN1CCC2CC1 (stereo not drawn) too.
Response: 1000 to 100000 nM

Query: Check COc1ncnc2sc(NC3=NCC4(CN5CCC4CC5)N3)nc12 (stereo not drawn) too.
Response: 1000 to 100000 nM

Query: Check COc1ccc2nc(NC3=NCC4(CN5CCC4CC5)N3)sc2n1 (stereo not drawn) too.
Response: 100 to 1000 nM

Query: Check c1cn(-c2cc(NC3=NCC4(CN5CCC4CC5)N3)ncn2)cn1 (stereo not drawn) too.
Response: 100 to 1000 nM

Query: Check O=c1ccc2nc(NC3=NCC4(CN5CCC4CC5)N3)sc2[nH]1 (stereo not drawn) too.
Response: 100 to 1000 nM

Query: Check CN1C(Nc2nccs2)=NCC12CN1CCC2CC1 (stereo not drawn) too.
Response: 1000 to 100000 nM

Each recorded value in this set is attributed to patent US9458179B2.
